This collection of values is drawn from the supplement of paper PMC8728848.

target: Neu5Ac(a2-3)Gal(b1-3)]Neu5Ac(a2-3)Gal(b1-4)]GlcNAc; test: glycan array binding signal (z-score within array); higher = stronger binding; conditions: glycan notation: IUPAC condensed, linker removed
Only a selection was taken, and the strongest signals are over-represented in it overall.
Entries and their glycan array binding signal (z-score)
Write the number on its own, no unit after it.

Pwp4 (Candida glabrata) (protein) MGSSHHHHHHSSGLVPRGSHMASVGNPITVSNVCSFPKNWHRTAGFRALTARLGIGIQSDSYKELLNYPGTFQLTTQQSSTTKPNFQISGLVGNIYGLTIVPSYLLVELTGYFVPPVSGEYTFSLEGSDDAAIIFIANPSTFKCGHVEDWPTAYDNDVTVTESIHATRTIYMIEGVAYPIRIAYYNGLSLGKLQASFTDPEGVKRVDWNGYIWRYDSCDTCSYV
-0.455
CBM40 CPF071 (Clostridium perfringens) (protein) MAHHHHHHVGTGSNDDDDKSPDPMLSSLGEYKDINLESSNASNITYDLEKYKNLDEGTIVVRFNSKDSKIQSLLGISNSKTKNGYFNFYVTNSRVGFELRNQKNEGNTQNGTENLVHMYKDVALNDGDNTVALKIEKNKGYKLFLNGKMIKEVKDTNTKFLNNIENLDSAFIGKTNRYGQSNEYNFKGNIGFMNIYNEPLGDDYLLSKTGETK
10.7

QUERY: Return reported glycan array binding signal (z-score); argument: Epa7 (Candida glabrata), Q6DTM6_CANGB (protein) MGSSHHHHHHSSGLVPRGSHMKDDYSSFLSNNNLGWTDPTEFPLGCSPNVTTPKNGLSMELYSYDLRKNGSYPCWDAAYLDPNYPRTGYKSHRLLAKVDGVTGNINFYYHATKGCTPEIDHLPASYNYPKPLTMTNFTMLLYGYFKPKVTGYHTFTISADDLLFVNFGAGNAFDCCKRESSADDFGNYQAYAVWGSQTAKDDLTVHLDAGLYYPIRIFFNNREYDAELSLTLKTESDSNPVIDFSDYFYSFDDTKDGCPGLVSYDTS
RESULT: -0.228
